Can you tell me SPOT peptide array binding signal intensity for the items I'm about to list?
tgt: CaBbc1
methodNotes: SPOT peptide array binding signal intensity (averaged, normalized) (arbitrary units (background-subtracted, floor 0; scale differs between SH3 domains)); higher = stronger binding of the SH3 domain to the peptide
Reply briefly: the number, and no unit.

Query string: Recorded SPOT peptide array binding signal intensity of `STKKPRPPVKSKPKH` , please.
Result string: 292

Query string: Item: `DKSRPPRPPPKPLHL`
Result string: 334

Query string: Lookup `ALRRRLPVTRSKINW`
Result string: 302

Query string: Same question, `LFMKGTPEFPKSGFS` this time
Result string: 40.5

This collection of values is drawn from the supplement of paper PMC4466140.
